# System: Abutilon theophrasti
# protocolSummary: Greenhouse herbicidal action, post-emergence
# Type: in vivo
# conditionDescription: 0.5 kg of a.s./ha

>  <molecule>
CNC(=O)[C@H](Cc1cccc(F)c1)NC(=O)c1cc(F)ccc1C(F)(F)F [Compound I-25]

>  <control of Abutilon theophrasti>
very good control

$$$$
>  <molecule>
CNC(=O)[C@H](Cc1ccccc1C)NC(=O)c1cccc(F)c1C(F)(F)F [Compound I-53]

>  <control of Abutilon theophrasti>
very good control

$$$$
>  <molecule>
CNC(=O)[C@H](Cc1cccc(F)c1)NC(=O)c1cccc(F)c1C(F)(F)F [Compound I-24]

>  <control of Abutilon theophrasti>
very good control

$$$$
>  <molecule>
CNC(=O)[C@H](Cc1ccccc1C)NC(=O)c1ccccc1C(F)(F)F [Compound I-19]

>  <control of Abutilon theophrasti>
very good control

$$$$
